target: Platelet glycoprotein IIb/IIIa (human, UniProt P08514 32-1039; P05106 27-788); experiment: ELISA
Starred links: 1 amine or outer side, 2 acyl side, 3 side chain; linkers in the order of their positions; H or OH if unused. Positions of bridges follow the written chain, without caps; N, C: chain ends. Non-standard residues stand in square brackets, D forms with d. Y‑OMe = O-methyl-tyrosine, COc1ccc(C[C@H](N[*:1])C(=O)[*:2])cc1; code O = not defined here

{"columns": ["binder", "IC50, nM"],
 "data": [
  ["Ac-CNPRGD[Y‑OMe][code O]C-NH2 (disulfide 1-9 (inferred); reading uncertain) [Ac-CNPRGD(Y-OMe)OC-NH2]", 50]
]}
